Here, molecules appear alongside pIC50 reported for GST-Xa-hAAK1 (Homo sapiens (Human)) in the literature.
pIC50: −log10 of the molar value.
MEASURED PROPERTY: pIC50

[A] COC(=O)Nc1nccc(-c2ccc(OC[C@@](C)(N)CC(C)C)c(C(F)F)n2)n1
[B] CC(C)C[C@@](C)(N)COc1ncc(-c2ccnc3ccccc23)cc1C(F)F
# query: argmin of pIC50 over A and B Returns: label corresponding to the selected item.
B

[1] Cc1cc(-c2ccc(OC[C@@](C)(N)CC(C)C)c(C)n2)ccn1
[2] Cc1cc2c(-c3ccc(OC[C@@](C)(N)CC(C)C)c(C#N)c3)ccnc2[nH]1
Which item exceeds the other in pIC50, 1 or 2 ? Returns: label corresponding to the selected item.
2

[A] CC(C)C[C@](C)(N)COc1ccc(-c2ccnc(C(F)(F)F)n2)cc1F
[B] CNc1cc(N[C@H]2CC[C@H](N)CC2)nn2c(C(=O)Nc3cccc(-c4nnc(C(C)C)s4)c3)cnc12
# query: argmin of pIC50 over A and B Returns: label corresponding to the selected item.
A
(A: 7.35, B: 8.05)

[1] CC(C)C[C@@](C)(N)COc1ccc2c(c1)COc1cnc(NCC(F)(F)F)cc1-2
[2] Cc1cc(-c2ccnc3ccc(Cl)cc23)ncc1OC[C@@](C)(N)CC(C)C
[3] COC(=O)Nc1cc(-c2cc(C(F)F)c(OC[C@](N)(CF)CC(C)C)cn2)ccn1
Ranking field: pIC50; order: falling. Response format: the labels, sorted as the prompt asks.
2, 3, 1
